Listing of entries alongside the reported IC50.
Target: Acyl-CoA (8-3)-desaturase (Homo sapiens)
Sequence (O60427 whole entry): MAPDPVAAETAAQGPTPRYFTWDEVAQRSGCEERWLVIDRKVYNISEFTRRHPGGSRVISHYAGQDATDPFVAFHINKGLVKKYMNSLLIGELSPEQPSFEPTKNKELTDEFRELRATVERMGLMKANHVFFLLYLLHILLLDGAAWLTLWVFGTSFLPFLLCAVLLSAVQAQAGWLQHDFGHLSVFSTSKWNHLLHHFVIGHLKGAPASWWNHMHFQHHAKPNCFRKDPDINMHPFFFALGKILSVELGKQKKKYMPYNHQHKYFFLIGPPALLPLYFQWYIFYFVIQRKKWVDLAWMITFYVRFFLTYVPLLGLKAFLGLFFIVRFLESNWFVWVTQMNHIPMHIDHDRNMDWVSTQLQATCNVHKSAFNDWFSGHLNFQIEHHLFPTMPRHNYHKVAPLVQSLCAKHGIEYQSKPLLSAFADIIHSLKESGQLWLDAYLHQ
Experiment: Inhibition of liver delta-5 desaturase (unknown origin)
ASSAY_READOUT: IC50 (nM)

- Nc1ccccc1C(=O)Nc1ccc(F)c(Cl)c1: 155
- Fc1cccc(Nc2n[nH]c3ccccc23)c1: 59
- Cc1ccc2[nH]nc(Nc3cccc(Cl)c3)c2c1: 6
- Clc1cccc(Nc2ncnc3ccsc23)c1: 50
- Clc1cccc(Nc2nccc3occc23)c1: 371
- FC(F)(F)c1ccc2[nH]nc(Nc3cccc(Cl)c3)c2c1: 254
- Clc1cccc(Nc2ncnc3sccc23)c1: 260
- Clc1cccc(Nc2cccc3ccccc23)c1: 17
- Clc1cccc(NC2CCc3ccccc32)c1 (stereo unspecified): 173
- Clc1cccc(Nc2ncnc3ccccc23)c1: 11
- Nc1ccc(Cl)cc1C(=O)Nc1cccc(Cl)c1: 34
- Nc1ccccc1C(=O)Nc1cc(Cl)cc(Cl)c1: 245
- Clc1cccc(Nc2n[nH]c3ccc(Cl)cc23)c1: 5
- CCOc1ccc(O)c(C(=O)Nc2cccc(Cl)c2)c1: 925
- CC(C)c1cccc(NC(=O)c2ccccc2N)c1: 843
- Nc1ccc(F)cc1C(=O)Nc1cccc(Cl)c1: 67
- Clc1cccc(Nc2n[nH]c3ccccc23)c1: 84
- Nc1ccccc1C(=O)Nc1cccc(F)c1: 516
- Nc1ccccc1C(=O)Nc1cccc(Cl)c1: 58
- COc1ccc2[nH]nc(Nc3cccc(Cl)c3)c2c1: 8
- Clc1cccc(Nc2n[nH]c3ccc(Br)cc23)c1: 21
- Fc1ccc2[nH]nc(Nc3cccc(Cl)c3)c2c1: 58
- O=C(Nc1cccc(Cl)c1)c1ccccc1O: 174
- COc1ccc(O)c(C(=O)Nc2cccc(Cl)c2)c1: 15
- Clc1cccc(Nc2ccnc3ccccc23)c1: 18

Hello, the source for this data is ChEMBL document CHEMBL3608212, in case you need it.
